- assayRemarks: inhibitors of PAF-induced NFkB signaling in CF airway cells, dose response, cell-based, uHTS hits, panel, cytotoxicity readout (AID 624344)
- conditionsUsed: CF bronchial epithelial cells, PAF-induced NFkB reporter inhibition, with PAF, run 1; at 79 µM (top of the series) unless noted
readoutName: inhibition (%)
Numbers only; they are read as %.

**Q:** Can you look up the measured inhibition of `Cc1cccc(N2CCN(C(=O)c3[nH]c(C(F)(F)F)nc3-c3ccccc3)CC2)c1C` for me?
**A:** 91.2

**Q:** Can you look up the measured inhibition of `COc1ccc2[nH]cc(C(=O)CCl)c2c1` for me?
**A:** 96.8

**Q:** Can you look up the measured inhibition of `Cc1nnc(NC(=O)Nc2ccc(Cl)c(Cl)c2)s1` for me?
**A:** 91.7

**Q:** Can you look up the measured inhibition of `S=c1[nH]nc(-c2ccncc2)n1/N=C/C(Cl)=C\c1ccccc1` for me?
**A:** 101

**Q:** Can you look up the measured inhibition of `COc1ccc2[nH]c(=O)c(CN(Cc3cccnc3)S(=O)(=O)c3ccccc3F)cc2c1` for me?
**A:** 109

**Q:** Can you look up the measured inhibition of `Nc1nc(N)nc(-c2cc(O)ccc2O)n1` for me?
**A:** 105

The origin of these recorded values is PubChem BioAssay.
